- method: M. tuberculosis growth inhibition, HTS (AID 449762);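 also: bacterial growth assessed after seven days of incubation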
- particulars: M. tuberculosis H37Rv growth inhibition, 7H9 media; at 25 µM; active compounds read high
Hit rate of the full screen: of about 330,000 compounds, about 1,900 (0.58%) were called active. Not shown: some 4% with an inconclusive outcome. These entries were drawn from the full list. Measured potencies and affinities stand elsewhere.
Can you tell me inhibition for the items I'm about to list?
Write down the numeric answer in % and omit the unit.

Quick check: inhibition of O=C(CCCN1C(=O)c2cccnc2C1=O)N1CC(=O)N(CCc2ccccc2)C(=O)C1 ?
2.7

Quick check: inhibition of O=C(NC(C(=O)N/N=C/c1ccncc1)c1n[nH]c(=O)c2ccccc12)c1ccccc1 (configuration not stated) ?
2.1

Quick check: inhibition of CN(C)S(=O)(=O)c1ccc(C(=O)NNC(=O)C2COc3ccccc3O2)cc1 (configuration not stated) ?
2.93

Quick check: inhibition of C=CCn1cnc2c(oc3ccccc32)c1=O ?
0.22

Quick check: inhibition of COc1ccc(NCc2ccc(OC)c(Cn3ccnc3)c2)c(OC)c1 ?
17.3

Quick check: inhibition of COc1ccc(NC(=O)CC(Cc2ccc(Cl)cc2)C(=O)O)cc1 (configuration not stated) ?
1.62

Quick check: inhibition of CCCCn1c(C)c(C(=O)O)c2cc(OC)c3ccccc3c21 ?
17.8

Quick check: inhibition of CCc1nc2c(c(=O)[nH]1)C(CC)(CC)Cc1ccccc1-2 ?
5.03

Quick check: inhibition of CCSc1nnc(CCNS(=O)(=O)c2ccc(C(C)=O)cc2)n1C ?
0.26

Quick check: inhibition of COc1ccc(C(=O)Nc2ccc3c(c2)C(=O)c2ccccc2C3=O)cc1OC ?
4.14

Quick check: inhibition of Cc1sc(NC(=O)CN2CCCC2)nc1-c1ccc2c(c1)CCN2C(=O)c1cccc(F)c1 ?
9.15

Quick check: inhibition of O=C(CCNC(=O)c1ccc([N+](=O)[O-])cc1)Nc1ccc(F)cc1F ?
17.9

Quick check: inhibition of O=C1c2ccccc2C(=O)c2c1oc(C(F)(F)F)c2C(=O)c1ccccc1 ?
9.23

Quick check: inhibition of CCCCCCOC(=O)C(C#N)c1nc2ccccc2nc1N1CCCCC1 (configuration not stated) ?
6.23

Quick check: inhibition of Cc1ccc(N(CC(=O)Nc2cc(C)cc(C)c2)S(=O)(=O)c2c(C)noc2C)cc1 ?
6.89

Quick check: inhibition of N=c1oc2ccccc2cc1C(=O)Nc1ccccc1 ?
-6.06

Quick check: inhibition of CN(C)/C=C1\C(=O)N(c2ccc([N+](=O)[O-])cc2)N=C1c1ccccc1 ?
-2.09

Quick check: inhibition of CN1N=C(/C=C/c2ccccc2)CCC1=O ?
-6.09

Quick check: inhibition of O=S(=O)(c1ccc2c(c1)OCCO2)C1CCC(S(=O)(=O)c2c(F)cccc2F)CC1 (configuration not stated) ?
-1.16

Quick check: inhibition of CCC1(CC)Cc2ccccc2-c2nc(CN3CCOCC3)[nH]c(=O)c21 ?
51.6

Quick check: inhibition of O=C(Nc1nc(-c2cc(Cl)sc2Cl)cs1)c1ccccc1 ?
-8.95

Quick check: inhibition of C/C(=N\NC(=O)CN(c1ccccc1)S(C)(=O)=O)c1ccccc1O ?
-3.69

###

- method: M. tuberculosis growth inhibition, HTS (AID 449762);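 also: bacterial growth assessed after seven days of incubation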
- particulars: M. tuberculosis H37Rv growth inhibition, 7H9 media; at 25 µM; active compounds read high
The campaign covered roughly 330,000 compounds. About 1,900 (0.58%) were called active. About 4% were inconclusive and are not listed. Only a sample is shown. Potency and affinity values are given separately.
Can you tell me inhibition for the items I'm about to list?
Write down the numeric answer in % and omit the unit.

Quick check: inhibition of COc1cc(N/N=C(\C)c2ccc(O)c(C)c2)nc(-c2ccccc2)n1 ?
40.1

Quick check: inhibition of Cn1c(-c2sc3cc(C(F)(F)F)cnc3c2-c2ccccn2)n[nH]c1=S ?
-2.76

Quick check: inhibition of Cc1ccc(F)cc1NC(=O)COC(=O)c1ccc2ncsc2c1 ?
-5.07

Quick check: inhibition of CCOc1ccc(C(=O)CCN2CCCCC2)cc1 ?
42.5

Quick check: inhibition of CCN(CC)S(=O)(=O)c1cccc(-c2csc(C)n2)c1 ?
-1.32

Quick check: inhibition of CCCOc1ccc(C(=O)CCN2CCCCC2)cc1 ?
23.5

Quick check: inhibition of CC(C)(C)OC(=O)N1CCC(c2cc(-c3cccs3)n[nH]2)CC1 ?
10.2

Quick check: inhibition of COc1cccc2sc3ccc(C#Cc4ccc(N)cc4)cc3c(=O)c12 ?
39.9

Quick check: inhibition of COc1ccc(-c2cc(C3CCN(Cc4ccc([N+](=O)[O-])cc4)CC3)[nH]n2)cc1 ?
39.6

Quick check: inhibition of COc1cc(OC)cc(C(=O)Nc2cccc(-c3ccc(N4CCOCC4)nn3)c2)c1 ?
-3.98

Quick check: inhibition of O=C(NCCC(=O)N1CCN(c2ccccn2)CC1)c1ccc(Cl)cc1 ?
9.44

###

- method: M. tuberculosis growth inhibition, HTS (AID 449762);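 also: bacterial growth assessed after seven days of incubation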
- particulars: M. tuberculosis H37Rv growth inhibition, 7H9 media; at 25 µM; active compounds read high
The campaign covered roughly 330,000 compounds. About 1,900 (0.58%) were called active. About 4% were inconclusive and are not listed. Not all results are given here. Potency and affinity values are given separately.
outcome measure: inhibition

Quick check: inhibition of Cc1ccc(NC(=O)COC(=O)Cn2cnc3ccccc32)c(C)c1 ?
5.43% (inactive)

Quick check: inhibition of Cc1cc(NC(=O)c2cccs2)n(-c2nc3ccccc3[nH]2)n1 ?
57.9% (inactive)

Quick check: inhibition of CCN(N=Nc1cccc([N+](=O)[O-])c1)c1cccc([N+](=O)[O-])c1 ?
4.11% (inactive)

Quick check: inhibition of CC(/C=C/c1ccco1)=N\NC(=O)c1cccnc1 ?
-3.96% (inactive)

Quick check: inhibition of O=C(CN1CCCCC1)Nc1nnc(-c2ccccc2)s1 ?
5.25% (inactive)

Quick check: inhibition of C/C(=N/NC(=O)c1cc(C)[nH]n1)c1ccncc1 ?
0.52% (inactive)

Quick check: inhibition of c1ccc(N2CCN(c3nc4cc5c(cc4s3)OCCO5)CC2)cc1 ?
5.85% (inactive)

Quick check: inhibition of O=C(N/N=C1\CCCc2ccccc21)c1cccc(Br)c1 ?
17.8% (inactive)

Quick check: inhibition of O=C(NN=C1CCCC1)c1cccc(Br)c1 ?
8.38% (inactive)

Quick check: inhibition of Cc1nn(-c2ccccc2)c2[nH]c(=O)c(CNCc3ccc4c(c3)OCO4)cc12 ?
-4.36% (inactive)

Quick check: inhibition of COc1ccc(NC(=O)CCCCCN2C(=O)c3ccccc3C2=O)c(OC)c1 ?
-6.73% (inactive)

Quick check: inhibition of COC(=O)c1ccc(CNC(=O)C2CCC(=O)N(CCCc3ccccc3)C2)cc1 (stereo unspecified) ?
-9.71% (inactive)

Quick check: inhibition of CCCCN(C(=O)NC(=O)Nc1ccc(C)cn1)S(C)(=O)=O ?
-2% (inactive)

Quick check: inhibition of COc1cc2nc(CN3CC=C(c4ccccc4)CC3)[nH]c(=O)c2cc1OC ?
3.16% (inactive)

Quick check: inhibition of O=c1[nH]c(CN2CCN(c3ccccc3Cl)CC2)nc2ccsc12 ?
6.57% (inactive)

Quick check: inhibition of c1ccc(Nc2ccccn2)nc1 ?
4.45% (inactive)

Quick check: inhibition of COc1cccc(NC(=O)[C@H](CC(C)C)NC(=O)N2CCn3c2nc2ccccc23)c1 ?
11.4% (inactive)

Quick check: inhibition of O=C(Cn1cnc([N+](=O)[O-])n1)c1ccccc1 ?
0.7% (inactive)

Quick check: inhibition of C=CCNC(=O)CN1C2CCCC1CC(NC(=O)c1ccccc1C)C2 (stereo unspecified) ?
-6.37% (inactive)

Quick check: inhibition of CC1CCCC(NC(=O)COC(=O)c2ccc(Br)o2)C1C (stereo unspecified) ?
10.4% (inactive)

Quick check: inhibition of Cc1ccc(N2C(=O)N(CC(=O)Nc3ccc(C)cc3Cl)C(=O)C2C)cc1 (stereo unspecified) ?
-3.9% (inactive)

Quick check: inhibition of c1ccc(Nc2ccccc2Nc2ccccn2)nc1 ?
-3.39% (inactive)

Quick check: inhibition of O=C(CNC(=O)c1ccccc1Cl)OC1CCOC1=O (stereo unspecified) ?
0.14% (inactive)

Quick check: inhibition of Cc1cc(=O)n2[nH]c(C)c(-c3ccc(Cl)cc3)c2n1 ?
-1.1% (inactive)

Quick check: inhibition of CCOC(=O)C1=C(C)OC(N)=C(C#N)C1c1c(C)nn(-c2ccccc2)c1Cl (stereo unspecified) ?
-3.55% (inactive)

Quick check: inhibition of Cc1ccc(CNC(=O)c2ccc(N3CCC4(CC3)CC(c3ccccc3)=NO4)c(NC(=O)c3ccc(Br)cc3)c2)cc1 ?
-2.65% (inactive)

Quick check: inhibition of O=C(N/N=C/C=C/c1ccccc1)c1cccnc1 ?
-0.94% (inactive)

Quick check: inhibition of O=C(Nc1ccccc1)N1CCCN(c2c(Cl)cncc2Cl)CC1 ?
2.69% (inactive)

Quick check: inhibition of Cc1cc(C2=NNC(=NC3CC3)SC2)c(C)n1-c1c(C)n(C)n(-c2ccccc2)c1=O ?
0.5% (inactive)

Quick check: inhibition of CC(C)CCc1noc(CN(CC2CCC2)CC2CCCO2)n1 (stereo unspecified) ?
-1.94% (inactive)

Quick check: inhibition of N#Cc1c(N)nc2c(c1-c1ccc(Br)s1)CCCC2 ?
0.77% (inactive)

Quick check: inhibition of COCC(=O)Nc1sc2c(c1C(=O)OC)CCC(C)C2 (stereo unspecified) ?
9.87% (inactive)

Quick check: inhibition of CC(C)C(=O)NC(=S)/C=C1/N(C)c2ccccc2C1(C)C ?
2.15% (inactive)

Quick check: inhibition of O=C(COc1ccc(S(=O)(=O)N2CCOCC2)cc1)N1CCCCCC1 ?
-3.92% (inactive)

Quick check: inhibition of CC(=O)c1cccc(NC(=O)C(C)OC(=O)c2ccc(Br)o2)c1 (stereo unspecified) ?
4.17% (inactive)

Quick check: inhibition of Cc1cc(NC(=O)c2ccc(C)s2)n(-c2nc3ccccc3[nH]2)n1 ?
56.9% (inactive)

Quick check: inhibition of CC1(C)CC(=O)C(N=Nc2cccc([N+](=O)[O-])c2)=C(O)C1 ?
0.73% (inactive)

Quick check: inhibition of O=C(CCN1C(=O)c2ccccc2C1=O)Nc1ccc(F)cc1 ?
-6.8% (inactive)

Quick check: inhibition of COc1ccc([C@H]2CC(=O)C=C(c3ccc4[nH]ccc4c3)C2)cc1OC ?
55.7% (inactive)

Quick check: inhibition of O=C1c2cccc3c([N+](=O)[O-])c(O)cc(c23)C(=O)N1Nc1ccccc1 ?
-8.23% (inactive)

Quick check: inhibition of CC1(C)CC(=O)c2c(O)cc(OCc3ccc([N+](=O)[O-])cc3)cc2O1 ?
8.3% (inactive)

Quick check: inhibition of COc1ccc(Cc2c(C)nc(N)nc2Cl)cc1 ?
8.87% (inactive)

Quick check: inhibition of O=C(CN1CCCC1)Nc1ccc([N+](=O)[O-])cc1 ?
4.32% (inactive)

Quick check: inhibition of c1ccc2c(c1)ncn2CCCOc1ccc2c(c1)CCC2 ?
68.5% (inactive)

Quick check: inhibition of O=C(COC(=O)c1ccc(F)cc1F)NCc1ccc2c(c1)OCO2 ?
2.2% (inactive)

Quick check: inhibition of c1csc(CCNc2ncnc3sc4c(c23)CCC4)c1 ?
1.63% (inactive)
